Value source: ChEMBL document CHEMBL1255534

Listed here are molecules together with their documented mortality at 100 ug/mL.
# EXPERIMENT: Toxicity in Artemia salina assessed as lethal rate at 100 ug/mL
# Format: organism-based
# RUN_PARAMETERS: in vivo, read-out: Activity

MOLECULE	OUTPUT_UNIT	mortality at 100 ug/mL
C=C1[C@H](Cc2c[nH]c3ccccc23)CC[C@H]2[C@](C)(CCC=C(C)C)[C@@H](O)CC[C@]12C [EMENIVEOL]	%	31.4
CC(C)=C[C@H]1C[C@@]2(C)[C@@H]3CC[C@H]4CC5(O)c6ccccc6N5C(=O)[C@@H]4[C@@]3(C)CC[C@@H]2O1 (stereo partly specified) [ASPORYZIN B]	%	42.9
CC(C)=C[C@H]1C[C@]2(C)[C@H](CC[C@@]3(C)[C@H]2CC[C@H]2CC(=O)c4ccccc4NC(=O)[C@@]23C)O1 [ASPORYZIN A]	%	61.9
CC(C)(O)/C=C/C[C@]1(C)[C@@H](O)CC[C@@]2(C)[C@H]1CC[C@H]1Cc3c([nH]c4ccccc34)[C@@]12C [ASPORYZIN C]	%	32.8
CC(C)=C[C@H]1C[C@]2(C)[C@H](CC[C@@]3(C)[C@H]2CC[C@H]2Cc4c([nH]c5ccccc45)[C@@]23C)O1	%	74.2
CC(C)=CCC[C@]1(C)[C@@H](O)CC[C@@]2(C)[C@H]1CC[C@H]1Cc3c([nH]c4ccccc34)[C@@]12C [EMINDOLE SB]	%	60.3
